- Experimental Target: T1, extracellular domain (ECD) of human IGSF11 (VSIG3), recombinant (human, UniProt Q5DX21 23-241)
- T1 construct: biotinylated where captured on streptavidin; tags of the reagent not always stated; also called IGSF11 (ECD domain); ECD-IGSF11
- T1 sequence: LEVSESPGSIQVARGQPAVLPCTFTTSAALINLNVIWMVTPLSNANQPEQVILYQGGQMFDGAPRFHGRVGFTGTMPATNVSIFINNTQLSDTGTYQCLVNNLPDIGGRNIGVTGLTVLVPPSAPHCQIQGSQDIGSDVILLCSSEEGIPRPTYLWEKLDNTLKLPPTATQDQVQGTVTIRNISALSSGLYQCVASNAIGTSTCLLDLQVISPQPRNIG
- Method Notes: ELISA RFU 0.5-1.0
Measured Metric: ELISA binding signal (RFU)

Task: // lookup ELISA binding signal (RFU) for A-035 (scFv format) (scFv, V domains shown, scFv) VH: QVQLVQSGAEVKKPGASVKVSCKASGYTFTGYYMHWVRQAPGQGLEWMGWINPNSGNTGYAQKFQGRVTMTRNTSISTAYMELSSLRSEDTAVYYCARGRLERGYWYFDLWGRGTLVTVSS VL: NFMLTQPHSVSESPGRTVTISCTRSSGSITSNYVQWYQQRPGSAPTILIYEDKERPSEVPDRFSGSIDISSNSASLTISGLKTEDEADYYCQSYGGTSQGVLFGGGTKVTVL
Result: 0.5 to 1 rfu
